Data provenance is ChEMBL document CHEMBL4706640.

- ASSAY SUMMARY: Passive permeability of compound in RRCK cells
- Format: ADME, cell-based, Canis lupus familiaris, MDCKII-LE
- RECORDED CONDITIONS: dog, MDCK; read-out: permeability
compounds and their reported Papp
Numbers only; they are read as ×10⁻⁶ cm/s.

# annotated cases, reported Papp shown
SMILES ENTRY	QUANTITY KIND	UNITS TEXT	MEASURED NUMBER
CNC(=O)N1CC[C@](C)(N2CCc3c(-c4cnc(N)nc4)nc(N4CCOCC4)nc32)C1	Papp	×10⁻⁶ cm/s	13
CC(C)C(=O)N1CC[C@](C)(N2CCc3c(-c4cnc(N)nc4)nc(N4CCOCC4)nc32)C1	Papp	×10⁻⁶ cm/s	36
Nc1ncc(-c2cc(N[C@@]3(CO)CCN(C(=O)OCC(F)F)C3)nc(N3CCOCC3)n2)cn1	Papp	×10⁻⁶ cm/s	3.9
CC(C)(N)C(=O)N1CC[C@](C)(N2CCc3c(-c4cnc(N)nc4)nc(N4CCOCC4)nc32)C1	Papp	×10⁻⁶ cm/s	4.2

Fill in the blank: the reported Papp of `CC(=O)N1CC[C@@](C)(N2CCc3c(-c4cnc(N)nc4)nc(N4CCOCC4)nc32)C1` is ____.
16

====

- EXPERIMENTAL SYSTEM: PI3-kinase p110-alpha/p85-alpha (Homo sapiens)
- ASSAY SUMMARY: Inhibition of recombinant human full-length PI3K p110alpha/p85alpha (322 to 600) expressed in baculovirus infected Sf21 cells using phosphatidylinositol 4,5-bisphosphate as substrate preincubated for 15 mins followed by addition of ATP and measured after 30 mins by fluorescence polarisation assay
Quick reference for pKi among some compounds
In plain terms, pKi is the concentration in mol/L turned into minus its base-10 logarithm.

Previously resolved entries follow.
SMILES ENTRY	EXPERIMENTAL SYSTEM	pKi
CC(C)(O)C(=O)N1CC[C@](C)(N2CCc3c(-c4cnc(N)nc4)nc(N4CCOCC4)nc32)C1	PI3-kinase p110-alpha/p85-alpha (Homo sapiens)	10.52
CNC(=O)N1CC[C@H](N2CCc3c(-c4cnc(N)nc4)nc(N4CCOCC4)nc32)C1	PI3-kinase p110-alpha/p85-alpha (Homo sapiens)	9.24

Next item in the queue.
Dear colleague, I am looking for the recorded pKi of the following compound: `CC(=O)N1CC[C@@](C)(N2CCc3c(-c4cnc(N)nc4)nc(N4CCOCC4)nc32)C1`
10.11

====

- ASSAY SUMMARY: AUC (0 to t) in Wistar Han rat at 10 mg/kg, po
- Format: ADME, organism-based
- Parameters: dose 10 mg/kg
- RECORDED CONDITIONS: in vivo
QUANTITY KIND: AUC(0-t)
Give me the value, and tack the unit on after it.

What does the data say about its AUC(0-t)? Entry: `Nc1ncc(-c2nc(N3CCOCC3)nc(N[C@@]3(CO)CCN(C(=O)OCC(F)F)C3)c2F)cn1`
1400 ng·h/mL

====

- ASSAY SUMMARY: Half life in Wistar Han rat at 2.3 mg/kg, iv
- Type: ADME, organism-based
- RECORDED CONDITIONS: in vivo
QUANTITY KIND: half-life (min)
Report only the number, with the unit min understood.

GET /values?readout=half-life&item= `Nc1ncc(-c2nc(N3CCOCC3)nc(N[C@@]3(COP(=O)(O)O)CCN(C(=O)OCC(F)F)C3)c2F)cn1`
16.8

====

- EXPERIMENTAL SYSTEM: PI3K p110 beta/p85 alpha (Homo sapiens)
- Sequence (P27986 whole entry): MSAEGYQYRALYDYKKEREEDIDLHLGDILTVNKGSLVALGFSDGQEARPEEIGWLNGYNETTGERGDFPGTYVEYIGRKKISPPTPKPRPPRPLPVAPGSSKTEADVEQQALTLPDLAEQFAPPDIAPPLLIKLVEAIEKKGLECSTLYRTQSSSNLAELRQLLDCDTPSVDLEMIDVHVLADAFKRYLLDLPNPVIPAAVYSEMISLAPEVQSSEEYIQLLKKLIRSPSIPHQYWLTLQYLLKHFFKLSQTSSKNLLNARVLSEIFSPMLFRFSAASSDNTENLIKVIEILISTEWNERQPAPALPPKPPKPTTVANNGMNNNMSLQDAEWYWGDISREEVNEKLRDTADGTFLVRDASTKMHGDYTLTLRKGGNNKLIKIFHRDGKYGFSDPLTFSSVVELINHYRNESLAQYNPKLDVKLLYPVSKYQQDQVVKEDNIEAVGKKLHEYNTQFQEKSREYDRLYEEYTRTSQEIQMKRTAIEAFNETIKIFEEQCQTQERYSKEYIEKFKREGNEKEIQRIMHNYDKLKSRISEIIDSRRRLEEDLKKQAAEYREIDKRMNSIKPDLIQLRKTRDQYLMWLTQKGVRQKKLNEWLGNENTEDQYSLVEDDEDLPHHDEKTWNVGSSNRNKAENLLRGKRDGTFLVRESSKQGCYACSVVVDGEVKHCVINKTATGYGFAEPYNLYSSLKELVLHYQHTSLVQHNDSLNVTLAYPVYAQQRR
- Sequence (P42338 whole entry): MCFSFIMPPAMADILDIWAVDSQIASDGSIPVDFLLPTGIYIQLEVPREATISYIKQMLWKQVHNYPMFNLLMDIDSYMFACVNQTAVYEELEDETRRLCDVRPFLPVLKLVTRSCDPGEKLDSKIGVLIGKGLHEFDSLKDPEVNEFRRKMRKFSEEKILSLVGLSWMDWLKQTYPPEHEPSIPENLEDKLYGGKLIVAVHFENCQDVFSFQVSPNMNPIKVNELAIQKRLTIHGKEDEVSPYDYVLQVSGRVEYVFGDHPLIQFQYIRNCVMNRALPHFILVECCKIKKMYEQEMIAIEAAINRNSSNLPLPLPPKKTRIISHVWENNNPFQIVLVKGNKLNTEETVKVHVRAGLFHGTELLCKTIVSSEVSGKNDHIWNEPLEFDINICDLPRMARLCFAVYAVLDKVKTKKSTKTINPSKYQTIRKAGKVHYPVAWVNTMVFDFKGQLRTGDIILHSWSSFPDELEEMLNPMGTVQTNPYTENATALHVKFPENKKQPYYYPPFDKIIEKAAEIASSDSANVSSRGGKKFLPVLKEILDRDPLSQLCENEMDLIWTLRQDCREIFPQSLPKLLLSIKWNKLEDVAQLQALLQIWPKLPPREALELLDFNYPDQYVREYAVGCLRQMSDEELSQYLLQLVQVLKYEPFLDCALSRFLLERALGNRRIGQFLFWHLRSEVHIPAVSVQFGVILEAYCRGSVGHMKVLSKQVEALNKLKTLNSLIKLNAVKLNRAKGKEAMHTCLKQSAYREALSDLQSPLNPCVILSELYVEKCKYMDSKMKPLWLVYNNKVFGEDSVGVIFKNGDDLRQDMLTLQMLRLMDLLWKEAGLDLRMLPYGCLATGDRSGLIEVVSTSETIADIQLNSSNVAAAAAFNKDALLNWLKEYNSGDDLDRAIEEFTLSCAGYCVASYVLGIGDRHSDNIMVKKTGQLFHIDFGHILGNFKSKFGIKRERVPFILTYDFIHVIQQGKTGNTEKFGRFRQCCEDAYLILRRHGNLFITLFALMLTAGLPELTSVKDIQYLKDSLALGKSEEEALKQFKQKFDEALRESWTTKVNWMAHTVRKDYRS
- ASSAY SUMMARY: Inhibition of recombinant human PI3K p110beta/p85alpha using phosphatidylinositol 4,5-bisphosphate as substrate preincubated for 15 mins followed by addition of ATP and measured after 30 mins by fluorescence polarisation assay
Definition: the class of an entry is the range in class A: < 4 nM; class B: ≥ 4 nM and < 20 nM; class C: ≥ 20 nM that contains its Ki.

SMILES ENTRY	LABEL CLASS
COC(=O)N1CC[C@H](N2CCc3c(-c4cnc(N)nc4)nc(N4CCOCC4)nc32)C1	class C
CC(=O)N1CC[C@@](C)(N2CCc3c(-c4cnc(N)nc4)nc(N4CCOCC4)nc32)C1	class B

Below: the item to evaluate.
Place this molecule in its band: `CNC(=O)N1CC[C@H](N2CCc3c(-c4cnc(N)nc4)nc(N4CCOCC4)nc32)C1`
class C

====

- ASSAY SUMMARY: Kinetic solubility of compound
- Assay type: physicochemical
- RECORDED CONDITIONS: read-out: Kinetic_solubility
# label = yes if solubility kinetic >= 400 µM else no

Solved cases (2 shown):
SMILES ENTRY	LABEL CLASS
Nc1ncc(-c2ccnc(N3CCOCC3)n2)cn1	no
CC(C)C(=O)N1CC[C@](C)(N2CCc3c(-c4cnc(N)nc4)nc(N4CCOCC4)nc32)C1	yes

Textbook exercise: given the entry `COC(=O)N1CC[C@](CO)(Nc2cc(-c3cnc(N)nc3)nc(N3CCOCC3)n2)C1` , state whether its solubility kinetic is greater than or equal to 400 µM.
no

# check: solubility kinetic of `CNS(=O)(=O)N1CC[C@](C)(N2CCc3c(-c4cnc(N)nc4)nc(N4CCOCC4)nc32)C1` is greater than or equal to 400 µM
yes

====

- ASSAY SUMMARY: Tmax in Wistar Han rat at 10 mg/kg, po
- Format: ADME, organism-based
- RECORDED CONDITIONS: in vivo
QUANTITY KIND: Tmax (h)
Quick reminder: number only, in h, skip the unit.

Need Tmax of `Nc1ncc(-c2nc(N3CCOCC3)nc(N[C@@]3(CO)CCN(C(=O)OCC(F)F)C3)c2F)cn1` , thanks.
1

====

- ASSAY SUMMARY: Cmax in Wistar Han rat at […], po
- Format: ADME, organism-based
- RECORDED CONDITIONS: in vivo
QUANTITY KIND: Cmax (ng/mL)
Entry rule: numbers only, all in ng/mL.

Param item = `Nc1ncc(-c2nc(N3CCOCC3)nc(N[C@@]3(COP(=O)(O)O)CCN(C(=O)OCC(F)F)C3)c2F)cn1` ; retrieve measured Cmax.
4.3

====

- EXPERIMENTAL SYSTEM: PI3-kinase p110-alpha/p85-alpha (Homo sapiens, UniProt P42336)
- Sequence (P42336 whole entry, one chain of several): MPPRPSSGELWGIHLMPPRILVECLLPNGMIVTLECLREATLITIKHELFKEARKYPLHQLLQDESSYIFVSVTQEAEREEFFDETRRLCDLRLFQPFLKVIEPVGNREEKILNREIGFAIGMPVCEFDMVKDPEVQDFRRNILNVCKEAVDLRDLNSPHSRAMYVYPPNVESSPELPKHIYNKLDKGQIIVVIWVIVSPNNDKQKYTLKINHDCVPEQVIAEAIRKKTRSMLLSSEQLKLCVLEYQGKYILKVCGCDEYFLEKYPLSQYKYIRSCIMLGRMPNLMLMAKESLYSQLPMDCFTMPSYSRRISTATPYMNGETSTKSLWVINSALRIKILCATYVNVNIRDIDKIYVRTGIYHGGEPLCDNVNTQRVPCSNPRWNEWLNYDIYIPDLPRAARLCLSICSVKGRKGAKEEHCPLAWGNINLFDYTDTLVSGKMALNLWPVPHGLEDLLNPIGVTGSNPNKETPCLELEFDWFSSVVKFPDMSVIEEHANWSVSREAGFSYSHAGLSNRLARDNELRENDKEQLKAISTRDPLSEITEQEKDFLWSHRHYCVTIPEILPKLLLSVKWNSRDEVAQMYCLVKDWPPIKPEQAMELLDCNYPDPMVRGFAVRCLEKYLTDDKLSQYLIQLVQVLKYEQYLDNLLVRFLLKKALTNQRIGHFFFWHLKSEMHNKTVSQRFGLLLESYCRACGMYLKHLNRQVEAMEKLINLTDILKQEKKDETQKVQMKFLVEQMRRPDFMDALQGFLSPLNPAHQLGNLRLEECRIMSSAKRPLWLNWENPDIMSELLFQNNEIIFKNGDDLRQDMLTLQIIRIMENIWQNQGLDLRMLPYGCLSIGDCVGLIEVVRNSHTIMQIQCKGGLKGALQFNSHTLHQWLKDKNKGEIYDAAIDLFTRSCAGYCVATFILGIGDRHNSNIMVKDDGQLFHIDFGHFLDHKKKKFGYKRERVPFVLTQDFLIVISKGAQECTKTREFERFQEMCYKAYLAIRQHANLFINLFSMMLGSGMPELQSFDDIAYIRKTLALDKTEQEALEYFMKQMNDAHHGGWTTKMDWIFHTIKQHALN
- ASSAY SUMMARY: Inhibition of recombinant human full-length PI3K p110alpha/p85alpha (322 to 600) expressed in baculovirus infected Sf21 cells using phosphatidylinositol 4,5-bisphosphate as substrate preincubated for 15 mins followed by addition of ATP and measured after 30 mins by fluorescence polarisation assay
Listed below: pKi values for each entry.
Notebook: values listed as pKi are -log10 of the concentration (mol/L).

SMILES ENTRY	QUANTITY KIND	MEASURED NUMBER
CNS(=O)(=O)N1CC[C@H](N2CCc3c(-c4cnc(N)nc4)nc(N4CCOCC4)nc32)C1	pKi	9.92

Here is the next item to consider.
What measured pKi goes with `CNC(=O)N1CC[C@](C)(N2CCc3c(-c4cnc(N)nc4)nc(N4CCOCC4)nc32)C1` ?
10.08

====

- ASSAY SUMMARY: Plasma clearance in Wistar Han rat at 2 mg/kg, iv
- Type: ADME, organism-based
QUANTITY KIND: clearance (mL/min/kg)
Response body: numeric value in mL/min/kg, unit text excluded.

Which clearance is listed for `Nc1ncc(-c2nc(N3CCOCC3)nc(N[C@@]3(CO)CCN(C(=O)OCC(F)F)C3)c2F)cn1` ?
30

====

Overview of recorded Papp for various compounds
- ASSAY SUMMARY: Passive permeability of compound in RRCK cells
- Format: ADME, cell-based, Canis lupus familiaris, MDCKII-LE
- RECORDED CONDITIONS: dog, MDCK; read-out: permeability
I'd appreciate it if you wrote the number followed by its unit.

Which measured Papp value corresponds to `CC(C)C(=O)N1CC[C@](CO)(Nc2cc(-c3cnc(N)nc3)nc(N3CCOCC3)n2)C1` ?
0.19 ×10⁻⁶ cm/s

====

- ASSAY SUMMARY: AUC (0 to t) in Wistar Han rat at […], po
- Format: ADME, organism-based
- RECORDED CONDITIONS: in vivo
QUANTITY KIND: AUC(0-t)
Put down the number, then write its unit next to it.

Query (molecule): `Nc1ncc(-c2nc(N3CCOCC3)nc(N[C@@]3(COP(=O)(O)O)CCN(C(=O)OCC(F)F)C3)c2F)cn1` ; field requested: AUC(0-t)
2.9 ng·h/mL

====

- ASSAY SUMMARY: Distribution coefficient, logD of compound at pH 7.4
- Format: physicochemical
- RECORDED CONDITIONS: octanol/water
logD values, listed per item
Please give only the number in your answer, with no unit.

SMILES ENTRY	logD
CNC(=O)N1CC[C@H](N2CCc3c(-c4cnc(N)nc4)nc(N4CCOCC4)nc32)C1	1.3
CC(C)(C)OC(=O)N1CC[C@](C)(Nc2cc(-c3cnc(N)nc3)nc(N3CCOCC3)n2)C1	3.8
COC(=O)N1CC[C@](CO)(Nc2nc(N3CCOCC3)nc(-c3cnc(N)nc3)c2F)C1	1.6
CC(=O)N1CC[C@H](N2CCc3c(-c4cnc(N)nc4)nc(N4CCOCC4)nc32)C1	1.1

Which logD is listed for `Nc1ncc(-c2nc(N3CCOCC3)nc(N[C@@]3(CO)CCN(C(=O)OCC(F)F)C3)c2F)cn1` ?
1.9
